Origin of values: patent US20240084003A1

- target-system: T1, CD22 on cynomolgus monkey peripheral blood B cells (cynomolgus monkey (Macaca fascicularis))
- T1 construct: whole, on cells; also called cynomolgus monkey B cells
- protocol-summary: FACS, cynomolgus PBMC, CD20+ B cells, antibody 100 nM
Listed binders paired with reported Proportion of chimeric antibody positive cells to B cells (%)
Provide only the numeric value, understood in %.

1. F2.55.1 (antibody, human IgG1, lambda, V domains shown, human-murine chimeric IgG1 lambda; VL name legible) VH: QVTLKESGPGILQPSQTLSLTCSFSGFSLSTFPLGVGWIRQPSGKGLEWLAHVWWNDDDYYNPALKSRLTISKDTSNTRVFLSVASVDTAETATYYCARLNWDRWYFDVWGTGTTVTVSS VL: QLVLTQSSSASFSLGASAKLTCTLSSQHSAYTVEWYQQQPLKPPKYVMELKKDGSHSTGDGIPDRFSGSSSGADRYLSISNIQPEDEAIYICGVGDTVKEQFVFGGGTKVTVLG: 66
2. F1.250.16 (antibody, human IgG1, kappa, V domains shown, human-murine chimeric IgG1 kappa; VL name legible) VH: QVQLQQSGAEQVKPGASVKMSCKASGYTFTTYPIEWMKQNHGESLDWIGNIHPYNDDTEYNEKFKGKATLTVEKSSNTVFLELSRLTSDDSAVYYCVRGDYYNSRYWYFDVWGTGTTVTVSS VL: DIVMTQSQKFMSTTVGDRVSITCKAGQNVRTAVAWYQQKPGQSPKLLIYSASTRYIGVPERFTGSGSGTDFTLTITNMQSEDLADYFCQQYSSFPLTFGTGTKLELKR: 97

Per the record, F1.7.6 (antibody, human IgG1, kappa, V domains shown, human-murine chimeric IgG1 kappa; VL name legible) VH: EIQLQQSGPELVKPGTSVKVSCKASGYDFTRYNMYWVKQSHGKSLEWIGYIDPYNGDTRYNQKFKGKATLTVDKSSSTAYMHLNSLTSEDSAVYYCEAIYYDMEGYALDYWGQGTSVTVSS VL: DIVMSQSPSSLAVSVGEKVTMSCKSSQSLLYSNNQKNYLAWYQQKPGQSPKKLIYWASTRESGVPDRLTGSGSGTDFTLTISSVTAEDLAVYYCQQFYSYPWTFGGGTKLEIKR has Proportion of chimeric antibody positive cells to B cells (%) of 43
